# Tested on: Plasmodium falciparum
# experimental_details: GSK_TCMDC: Inhibition of Plasmodium falciparum 3D7 in whole erythrocytes, using parasite LDH activity as an index of growth.
# Format: functional, organism-based
# protocol_conditions: Plasmodium falciparum, 3D7
Mark satisfied only when XC50 stays strictly below 900 nM. Values equal to the cut-off are not satisfied.

Solved cases below.
Cc1[nH]n(-c2cccc(C(F)(F)F)c2)c(=O)c1-c1ccc(Cl)cc1 : satisfied
CCCCCCC(C)c1cc(OCCN(CC)CC)c2c(c1)OC(C)(C)C=C2c1ccncc1 (stereo not given) : not satisfied
N#CCSc1nnc(-c2ccccc2)c2ccccc12 : satisfied
CN1CCCN(Cc2cccc(-c3ccc(NS(=O)(=O)c4cccc5cccnc45)cc3)c2)CC1 : not satisfied

Quick check: does CN(C)CCOc1ccc2c(c1)CN(C)CC2c1ccccc1 (stereo not given) have XC50 under 900 nM? not satisfied

# strict comparison: is reported XC50 < 900 nM? input = c1csc(-c2nc(N3CCCC3)ncc2-c2ccsc2)n1 satisfied

* * *

# Test system: Plasmodium falciparum
# experimental_details: GSK_TCMDC: Inhibition of Plasmodium falciparum 3D7 in whole erythrocytes, using parasite LDH activity as an index of growth.
# Type: functional, organism-based
# protocol_conditions: Plasmodium falciparum, 3D7
quantity_kind: XC50 (nM)
Answer in nM, number only, no unit symbol.

Sample records with XC50:
COc1cc(F)c2ncc(Cl)c(CCN3CCC(NCc4cc5c(cn4)OCCO5)CC3)c2c1 : 481
Cc1cc(=NN=Cc2cccc(F)c2)c2cc(F)ccc2[nH]1 : 478
COc1ccc2c(c1CCNCCCCNCCc1c(OC)ccc3c1CCCC3)CCCC2 : 376
Cc1cc(NC2CCN(Cc3ccccc3)CC2)nc(NCCCCc2ccccc2)n1 : 383
CN1CCC(N(Cc2ccc(-c3ccc(Cl)cc3)cc2)C(=O)Cn2c(CCc3cccc(F)c3F)cc(=O)c3ccccc32)CC1 : 865

Consider the molecule O=C(/C=C/c1ccc(Cl)c(Cl)c1)NCCCCCN1CCCN(C(=O)Nc2ccc(C(F)(F)F)cc2)CC1 . State its measured XC50. 688

Tell us which XC50 value is on record for COc1cc(Cc2cnc(N)nc2N)cc(OCCCOc2ccccc2)c1OC 1080

Determine its reported XC50: CCOc1ccccc1C(=O)Nc1cccc(-c2nc3ncccn3c2C)c1 846

Given the molecule CC(C)CCN(Cc1cncn1Cc1ccccc1F)C(=O)c1cncc(-c2ccccc2)c1 , write its reported XC50. 791

# return recorded XC50 for input CCN(CCCN1CCCCC1)c1cc(C)nc(Nc2cccc3c2CCCC3)n1 1030

* * *

Recorded XC50 values for a group of compounds are listed next.
# Test system: Plasmodium falciparum
# experimental_details: GSK_TCMDC: Inhibition of Plasmodium falciparum 3D7 in whole erythrocytes, using parasite LDH activity as an index of growth.
# Assay type: functional, organism-based
# protocol_conditions: Plasmodium falciparum, 3D7
Answer format: numeric, nM implied, no suffix.

O=C1SC(=Cc2ccc(O)c(O)c2)C(=O)N1c1ccccc1 : 1200

For COc1ccccc1C1CCN(C2CCC(NC(=O)/C=C/c3cc(F)cc(F)c3)CC2)CC1 (centres undefined) , write its XC50. 1110

Please supply the value of reported XC50 for the item CCCc1ccccc1Nc1nc(C)cc(N(CC)CCCN2CCCCC2)n1 622

Answer with the recorded XC50 of Cc1[nH]c(C)c(-c2csc3ccccc23)c(=O)c1Cl only. 1020

State, in one line, measured XC50 of CC(Sc1nc(-c2ccccc2)c(-c2ccccc2)o1)C(=O)NC1CC1 (centres undefined) 843

Please give measured XC50 of the following entry: CCCCc1ccc2[nH]c(NC(=O)OC)nc2c1 683

Query XC50 for CCCCc1ccc(-c2ccc3[nH]c(C)c(Br)c(=O)c3c2)cc1 105

Give the reported value of XC50 for this record: O=C(/C=C/c1ccc(Cl)c(Cl)c1)NCCCCCN1CCCC(C(=O)Nc2ccc(Cl)c(Cl)c2)C1 (centres undefined) 785

Could you please provide reported XC50 for COc1ccc(-n2ncc(C(=O)N3CCC4(C3)C(=O)N(c3ccccc3)c3ccccc34)c2C)cc1 (centres undefined) ? Thanks! 932

Indicate its recorded XC50; the compound in question is COc1ccc(OC)c(-c2cccc(-c3cccc(NC(=O)c4ccc([N+](=O)[O-])o4)c3)n2)c1 371

Provide only the value of recorded XC50 for CN1CCN(CCCNCc2cccc(Nc3nccc(Nc4ccc(Oc5ccccc5)cc4)n3)c2)CC1 765

Note down XC50 recorded for c1ccc2c(NCCCCCCNc3ccnc4ccccc34)ccnc2c1 191

Given O=C(Cn1c(CCc2cccc(F)c2F)nc(=O)c2ccccc21)N(CCN1CCCCC1)Cc1ccc(-c2ccc(C(F)(F)F)cc2)cc1 , respond with its XC50. 757

Specify measured XC50 for CO/C(=C\C=C\c1cc2cc(Cl)c(Cl)cc2[nH]1)C(=O)NCCCCN1CCN(c2ccccc2OC)CC1 . 514
